Origin of values: patent US6777418B2

melting point by entry:

Lookup: # melting point lookup, item Cn1cnnc1SCc1cc2c(cc1/C=C/c1ccc(C(=O)O)cc1)C(C)(C)CCC2(C)C
Found: 251.6 to 252.6 °C

Lookup: # melting point lookup, item CC1(C)CCC(C)(C)c2cc(CCCn3cccn3)c(/C=C/c3ccc(C(=O)O)cc3)cc21
Found: 181.5 to 182.5 °C

Lookup: # melting point lookup, item COCCCc1cc2c(cc1/C=C/c1ccc(C(=O)O)cc1)C(C)(C)CCC2(C)C
Found: 164.7 to 166 °C

Lookup: # melting point lookup, item Cc1nnc(SCCCc2cc3c(cc2/C=C/c2ccc(C(=O)O)cc2)C(C)(C)CCC3(C)C)s1
Found: 144 to 145.3 °C

Lookup: # melting point lookup, item CC1(C)CC(=O)C(C)(C)c2cc(Cn3cccn3)c(/C=C/c3ccc(C(=O)O)cc3)cc21
Found: 233 to 233.5 °C

----------
melting point by entry:

Solved entries (count: 5):
CC1(C)CC(=O)C(C)(C)c2cc(/C=C/c3ccc(C(=O)O)cc3)c(Cn3cccn3)cc21
264.8 to 265.9 °C
CC1(C)CCC(C)(C)c2cc(CCCO)c(/C=C/c3ccc(C(=O)O)cc3)cc21
212.8 to 213.2 °C
CC1(C)CCC(C)(C)c2cc(CCn3cccn3)c(/C=C/c3ccc(C(=O)O)cc3)cc21
235.3 to 235.9 °C
CC1(C)CCC(C)(C)c2cc(CSC3CCCC3)c(/C=C/c3ccc(C(=O)O)cc3)cc21
209.4 to 211.3 °C
CC1(C)CCC(C)(C)c2cc(CCc3nccs3)c(/C=C/c3ccc(C(=O)O)cc3)cc21
215.8 to 217.5 °C

Lookup: # melting point lookup, item Cc1nnc(SCc2cc3c(cc2/C=C/c2ccc(C(=O)O)cc2)C(C)(C)CCC3(C)C)s1
Found: 218.1 to 218.5 °C

Lookup: # melting point lookup, item CC1(C)CCC(C)(C)c2cc(Cc3ccc(F)cc3F)c(/C=C/c3ccc(C(=O)O)cc3)cc21
Found: 204.3 to 205.7 °C

Lookup: # melting point lookup, item CC1(C)CCC(C)(C)c2cc(Cn3cccn3)c(/C=C/c3ccc(C(=O)N4CCCCC4)cc3)cc21
Found: 171.6 to 172.5 °C

Lookup: # melting point lookup, item CC1(C)CCC(C)(C)c2cc(CSCC(O)CO)c(/C=C/c3ccc(C(=O)O)cc3)cc21 (stereo not shown)
Found: 174.8 to 175.9 °C

Lookup: # melting point lookup, item CC(C)SCc1cc2c(cc1/C=C/c1ccc(C(=O)O)cc1)C(C)(C)CCC2(C)C
Found: 208.6 to 210.8 °C

Lookup: # melting point lookup, item CC1(C)CCC(C)(C)c2cc(Cn3cccn3)c(/C=C/c3ccc(C(=O)O)c(F)c3)cc21
Found: 177 to 179 °C

----------
biological target: RAR beta (Homo sapiens); assay: Ligand binding assay, retinoid receptors (Apfel et al.), RAR beta; conditions: second value of the cell, read-out: IC50 nM (alpha/beta/gamma): beta
Sequence (P10826 whole entry): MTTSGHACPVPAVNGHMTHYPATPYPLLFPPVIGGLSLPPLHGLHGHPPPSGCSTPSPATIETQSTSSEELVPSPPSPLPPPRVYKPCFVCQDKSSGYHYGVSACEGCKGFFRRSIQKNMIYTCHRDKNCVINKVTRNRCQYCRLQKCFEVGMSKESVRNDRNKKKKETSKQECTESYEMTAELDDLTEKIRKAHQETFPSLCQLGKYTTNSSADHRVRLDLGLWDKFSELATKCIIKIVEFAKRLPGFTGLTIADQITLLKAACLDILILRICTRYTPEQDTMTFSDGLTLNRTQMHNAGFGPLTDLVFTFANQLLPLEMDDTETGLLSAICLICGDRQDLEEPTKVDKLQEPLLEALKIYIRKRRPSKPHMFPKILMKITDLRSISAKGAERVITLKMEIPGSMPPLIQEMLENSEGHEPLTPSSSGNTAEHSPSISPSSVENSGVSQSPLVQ
IC50 by entry:
Output spec: scalar in nM, unitless text.

Solved entries (count: 5):
CC1(C)CCC(C)(C)c2cc(CO)c(/C=C/c3ccc(C(=O)O)cc3)cc21
1000
COCc1cc2c(cc1/C=C/c1ccc(C(=O)O)cc1)C(C)(C)CCC2(C)C
1600
Cn1nnnc1SCc1cc2c(cc1/C=C/c1ccc(C(=O)O)cc1)C(C)(C)CCC2(C)C
100
CCCCSCc1cc2c(cc1/C=C/c1ccc(C(=O)O)cc1)C(C)(C)CCC2(C)C
320
COCCCc1cc2c(cc1/C=C/c1ccc(C(=O)O)cc1)C(C)(C)CCC2(C)C
1400

// moving on: another record for IC50
Lookup: # IC50 lookup, item Cc1cnn(Cc2cc3c(cc2/C=C/c2ccc(C(=O)O)cc2)C(C)(C)CCC3(C)C)c1
Found: 620

----------
IC50 by entry:
target: RAR α (Homo sapiens, UniProt P10276); experiment: Ligand binding assay, retinoid receptors (Apfel et al.), RAR alpha; conditions: first value of the cell, read-out: IC50 nM (alpha/beta/gamma): alpha
Sequence (P10276 whole entry, species assumed): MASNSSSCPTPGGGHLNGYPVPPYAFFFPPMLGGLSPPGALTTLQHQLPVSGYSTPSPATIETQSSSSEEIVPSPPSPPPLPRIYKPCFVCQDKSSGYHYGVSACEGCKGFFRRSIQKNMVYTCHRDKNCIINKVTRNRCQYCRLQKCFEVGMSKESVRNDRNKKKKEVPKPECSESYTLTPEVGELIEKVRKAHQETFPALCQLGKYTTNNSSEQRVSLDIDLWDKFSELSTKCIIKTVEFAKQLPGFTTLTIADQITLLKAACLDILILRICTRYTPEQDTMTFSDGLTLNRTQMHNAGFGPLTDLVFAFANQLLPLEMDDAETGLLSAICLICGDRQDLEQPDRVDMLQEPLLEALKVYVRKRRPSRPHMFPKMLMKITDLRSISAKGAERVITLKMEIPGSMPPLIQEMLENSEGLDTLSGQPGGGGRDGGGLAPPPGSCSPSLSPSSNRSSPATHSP
Output spec: scalar in nM, unitless text.

Solved entries (count: 8):
COCc1cc2c(cc1/C=C/c1ccc(C(=O)O)cc1)C(C)(C)CCC2(C)C [Compound 1]
3600
CCCCSCc1cc2c(cc1/C=C/c1ccc(C(=O)O)cc1)C(C)(C)CCC2(C)C [Compound 2]
1000
CC1(C)CCC(C)(C)c2cc(CO)c(/C=C/c3ccc(C(=O)O)cc3)cc21 [Compound 15]
1000
Cn1nnnc1SCc1cc2c(cc1/C=C/c1ccc(C(=O)O)cc1)C(C)(C)CCC2(C)C [Compound 25]
190
CC1(C)CCC(C)(C)c2cc(Cn3cccc3)c(/C=C/c3ccc(C(=O)O)cc3)cc21 [Compound 7]
260
COCCCc1cc2c(cc1/C=C/c1ccc(C(=O)O)cc1)C(C)(C)CCC2(C)C [Compound 11]
1800
CCC(C)CSCc1cc2c(cc1/C=C/c1ccc(C(=O)O)cc1)C(C)(C)CCC2(C)C (stereo not drawn) [Compound 3]
200
CC1(C)CCC(C)(C)c2cc(CSCc3ccco3)c(/C=C/c3ccc(C(=O)O)cc3)cc21 [Compound 8]
810

// moving on: another record for IC50
Lookup: # IC50 lookup, item Cc1cnn(Cc2cc3c(cc2/C=C/c2ccc(C(=O)O)cc2)C(C)(C)CCC3(C)C)c1 [Compound 20]
Found: 950

----------
melting point by entry:

Solved entries (count: 5):
CC1(C)CCC(C)(C)c2cc(Cc3cccs3)c(/C=C/c3ccc(C(=O)O)cc3)cc21
229.1 to 229.6 °C
CC1(C)CCC(C)(C)c2cc(-c3cccs3)c(/C=C/c3ccc(C(=O)O)cc3)cc21
242.5 to 243.6 °C
COCc1cc2c(cc1/C=C/c1ccc(C(=O)O)cc1)C(C)(C)CCC2(C)C
184.2 to 187.9 °C
CC1(C)CCC(C)(C)c2cc(Sc3ncccn3)c(/C=C/c3ccc(C(=O)O)cc3)cc21
283 to 283.5 °C
COCCOCc1cc2c(cc1/C=C/c1ccc(C(=O)O)cc1)C(C)(C)CCC2(C)C
55.9 to 58.2 °C

Lookup: # melting point lookup, item CCC(C)CSCc1cc2c(cc1/C=C/c1ccc(C(=O)O)cc1)C(C)(C)CCC2(C)C (stereo not drawn)
Found: 66.1 to 68.5 °C

Lookup: # melting point lookup, item CC1(C)CC(O)C(C)(C)c2cc(/C=C/c3ccc(C(=O)O)cc3)c(Cn3cccn3)cc21 (stereo not drawn)
Found: 247.6 to 248.4 °C

Lookup: # melting point lookup, item CCOCCCc1cc2c(cc1/C=C/c1ccc(C(=O)O)cc1)C(C)(C)CCC2(C)C
Found: 169.4 to 173.3 °C

Lookup: # melting point lookup, item CC1(C)CCC(C)(C)c2cc(Cn3cccc3)c(/C=C/c3ccc(C(=O)O)cc3)cc21
Found: 255.6 to 257.4 °C

----------
target: RAR gamma (Homo sapiens); assay: Ligand binding assay, retinoid receptors (Apfel et al.), RAR gamma; settings: third value of the cell, read-out: IC50 nM (alpha/beta/gamma): gamma
Sequence (P13631 whole entry): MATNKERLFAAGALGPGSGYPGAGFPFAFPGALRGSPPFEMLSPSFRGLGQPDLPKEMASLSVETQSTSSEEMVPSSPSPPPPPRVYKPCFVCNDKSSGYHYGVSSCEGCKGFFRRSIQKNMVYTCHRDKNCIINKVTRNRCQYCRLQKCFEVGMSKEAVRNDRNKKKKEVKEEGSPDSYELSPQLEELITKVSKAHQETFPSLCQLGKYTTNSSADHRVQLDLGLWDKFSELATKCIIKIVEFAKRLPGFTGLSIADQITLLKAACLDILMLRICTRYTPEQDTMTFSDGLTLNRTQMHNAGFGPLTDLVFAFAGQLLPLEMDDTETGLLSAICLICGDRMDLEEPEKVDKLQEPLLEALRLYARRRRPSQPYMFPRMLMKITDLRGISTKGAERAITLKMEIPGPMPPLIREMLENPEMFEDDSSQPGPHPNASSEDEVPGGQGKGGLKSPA
log10 of IC50 by entry:
The common logarithm of IC50 in nM is what is listed.

Solved entries (count: 5):
CC1(C)CCC(C)(C)c2cc(Cn3cccc3)c(/C=C/c3ccc(C(=O)O)cc3)cc21
1.23
COCCCc1cc2c(cc1/C=C/c1ccc(C(=O)O)cc1)C(C)(C)CCC2(C)C
2.32
Cc1cnn(Cc2cc3c(cc2/C=C/c2ccc(C(=O)O)cc2)C(C)(C)CCC3(C)C)c1
2.83
COCc1cc2c(cc1/C=C/c1ccc(C(=O)O)cc1)C(C)(C)CCC2(C)C
3.23
CCCCSCc1cc2c(cc1/C=C/c1ccc(C(=O)O)cc1)C(C)(C)CCC2(C)C
2.28

Lookup: # log10 of IC50 lookup, item CC1(C)CCC(C)(C)c2cc(CSCc3ccco3)c(/C=C/c3ccc(C(=O)O)cc3)cc21
Found: 1.41

----------
melting point by entry:

Lookup: # melting point lookup, item CC1(C)CCC(C)(C)c2cc(CCc3ncccn3)c(/C=C/c3ccc(C(=O)O)cc3)cc21 [Compound 41]
Found: 228 to 228.9 °C

Lookup: # melting point lookup, item CC1(C)CCC(C)(C)c2cc(CSCc3ccco3)c(/C=C/c3ccc(C(=O)O)cc3)cc21 [Compound 8]
Found: 169.7 to 171 °C

Lookup: # melting point lookup, item CC1(C)CC(O)C(C)(C)c2cc(Cn3cccn3)c(/C=C/c3ccc(C(=O)O)cc3)cc21 (stereo not drawn) [Compound 55]
Found: 241.6 to 242 °C

----------
melting point by entry:

Solved entries (count: 4):
CC1(C)CCC(C)(C)c2cc(-c3ccsc3)c(/C=C/c3ccc(C(=O)O)cc3)cc21
244.5 to 245.8 °C
CC1(C)CCC(C)(C)c2cc(Cn3cccn3)c(/C=C/c3ccc(C(N)=O)cc3)cc21
248 to 249 °C
Cc1nnc(SCCc2cc3c(cc2/C=C/c2ccc(C(=O)O)cc2)C(C)(C)CCC3(C)C)s1
244.7 to 245.2 °C
Cc1ccc(Cc2cc3c(cc2/C=C/c2ccc(C(=O)O)cc2)C(C)(C)CCC3(C)C)cc1
216.3 to 217.3 °C

// moving on: another record for melting point
Lookup: # melting point lookup, item CC1(C)CCC(C)(C)c2cc(Cn3cccn3)c(/C=C/c3ccc(C(=O)O)s3)cc21
Found: 168 to 174 °C
